Attribution: PubChem BioAssay (NCI)

System: SF-268 CNS
Assay: NCI-60 one-dose screen, 48 h
Conditions: 10 µM unless noted
About 83,000 compounds went through this panel and 20% of them were active in at least one assay; those are over-represented in the sample as a whole. Calls of active or inactive are those of the source. How the source made its calls: active means growth percent below 10; inactive means the rest.
Permitted responses: active, inactive

# compound, qualitativeLabel
rows = [
    ("CN1CCN(CCCOc2ccc3ncnc(Nc4ccc(OCc5cccc(F)c5)c(Cl)c4)c3c2)CC1", "active"),
    ("O=C1NCCc2c1noc2-c1ccccc1", "inactive"),
    ("CC1=C([Se]CC(OC(=O)[C@@H](CSSC(C)(C)C)NC(=O)C(C)(C)C)C(=O)NCCCCCC(=O)OCc2ccccc2)C(=O)c2ccccc2C1=O (some centres undefined)", "active"),
    ("Cn1cc(NC(=O)Nc2cc(C(=O)O)n(C)c2)cc1C(=O)O", "inactive"),
    ("CC(=O)c1nn(-c2ccccc2)c(=Nc2ccccc2)cc1C", "inactive"),
]

Called result for O=C(COc1cccc(/C=C2\Oc3ccc4ccccc4c3C2=O)c1)c1ccc(Cl)cc1
inactive

Which outcome was assigned to CCCCCc1c(C)[nH]c(/C=C2\N=C(c3ccc[nH]3)C=C2OCc2ccccc2)c1C in this test?
active

Record request — test call for C(#Cc1ccccc1C#Cc1ccccn1)c1ccc(OCCCCCCOc2ccc(C#Cc3ccccc3C#Cc3ccccn3)cc2)cc1
inactive

Which outcome was entered for the compound O=C(O)CNC(=O)C1(N2C(=O)c3ccccc3C2=O)CCCC1 in this test?
inactive

---

System: PC-3 prostate
Experiment: NCI-60 one-dose screen, 48 h (100 = growth as untreated, 0 = no growth, -100 = all killed)
Details: 10 µM unless noted
This is part of a sample that, as a whole, favours compounds with a hit. Of some 83,000 tested, about 20% had one in any assay.
endpoint: growth (%)
Give your result in % as a bare value.

# molecule, recordedNumber
measured = [
    ("N/C(=N\\C(N)=N\\c1nc2ccccc2s1)c1ccnc(Cl)c1", 37.9),
    ("O=C(COc1cccc(/C=C2\\Oc3ccc4ccccc4c3C2=O)c1)c1ccc([N+](=O)[O-])cc1", 75.6),
    ("O=C(C(=O)c1cc(Br)ccc1O)c1cc(Br)ccc1O", 46.5),
    ("CCCCCCCCCCCCCCCCNC(=O)Nc1ccc2ccccc2c1", 91.5),
    ("O=c1ccn(C2CC=C(CO)O2)c(=O)[nH]1 (stereo not given)", 85.9),
]

I would be grateful if you could share the reported growth for COC(=O)N/N=C/c1coc2ccc(Cl)cc2c1=O .
74

State the recorded growth for this entry: COc1ccc(OC)c(CCn2cncc2-c2c[nH]c3cc(Br)ccc23)c1
34.5

Return reported growth; argument: Cc1ccc(C2=NNC(c3sc(Cl)nc3Cl)C2)cc1 (stereo not given)
93.6

Query: growth; subject: N#CC(C#N)C(C#N)C#N
90.4

Would you mind telling me what growth value was observed for CC(C)CC1NC(=O)C(CCCN)NC(=O)C(C(C)C)NC(=O)C2CCCN2C(=O)C(Cc2ccccc2)NC(=O)C(CC(C)C)NC(=O)C(CCCN)NC(=O)C(C(C)C)NC(=O)C2CCCN2C(=O)C(Cc2ccccc2)NC1=O (stereo not given) ?
-49.2

---

Test system: OVCAR-4 ovarian
Assay: NCI-60 one-dose screen, 48 h (100 = growth as untreated, 0 = no growth, -100 = all killed)
Details: 10 µM unless noted
This is part of a sample that, as a whole, favours compounds with a hit. Of some 83,000 tested, about 20% had one in any assay.
Label rule, in plain words: growth of 70% and up is Criterion met, under 70% is Criterion not met.

// below: answered compounds
# compound, qualitativeLabel
rows = [
    ("O=C(NN1C(=O)c2cc(C(=O)O)c(C(=O)O)cc2C1=O)c1ccncc1", "Criterion met"),
    ("O=[N+]([O-])c1ccc(N=Nc2c(Cl)cc(O)cc2Cl)cc1", "Criterion not met"),
    ("c1ccc(-c2n(Cc3ccc4ccccc4c3)cc[n+]2Cc2ccc3ccccc3c2)cc1", "Criterion not met"),
]

In plain terms: is recorded growth at least 70% for NS(=O)(=O)c1ccc(-n2ncc3c(N/N=C/c4ccccc4)ncnc32)cc1 ?
Criterion not met

Please check the record N#Cc1ncc(-c2ccc(C(F)(F)F)cc2)c(NC2CCCCCC2)n1 and state if its growth is at or above 70%.
Criterion not met

Is reported growth greater than or equal to 70% here: Clc1ccc2c(c1)C(Br)c1cc(Cl)cc(Cl)c1-2 (stereo not given)
Criterion met

Does CCCCCN(CCCCC)CCCNc1c2c(nc3ccc(Cl)cc13)CCCC2 have a reported growth of at least 70%?
Criterion not met

I'd appreciate it if you could say whether O=C(Nc1ccccc1)c1cc(-n2cnc([N+](=O)[O-])c2)cc(-n2cnc([N+](=O)[O-])c2)n1 has growth at least equal to 70%.
Criterion met

Is growth at least 70%? Consider Cc1cc(C)cc(S(=O)(=O)n2ccc(-c3ccc4c(c3)CCC(C)(C)O4)n2)c1
Criterion not met
